Experiment: AUC (0 to t) in CD-1 mouse at 2 mg/kg, iv by LC-MS analysis
Format: ADME, organism-based
Set-up: dose 2 mg/kg
Settings: in vivo
observedProperty: AUCt
Number plus unit, in that order.

Exam item: Which AUCt is listed for Nc1n[nH]c2cc(-c3ccc(=O)n(Cc4ccccc4F)c3)ccc12 ?
Marked response: 629 ng·h/mL

Exam item: Recorded AUCt of Nc1n[nH]c2cc(-c3ccc(=O)n(Cc4cccc(Cl)c4)c3)ccc12 , please.
Marked response: 834 ng·h/mL

* * *

Experiment: Oral bioavailability in CD-1 mouse at 5 mg/kg by LC-MS analysis
Assay type: ADME, organism-based
Details: in vivo
observedProperty: bioavailability (%)
Number in %, nothing else.

Exam item: Which measured bioavailability value corresponds to Nc1n[nH]c2cc(-c3ccc(=O)n(Cc4cccc(Cl)c4)c3)ccc12 ?
Marked response: 100

Exam item: Which value of bioavailability has been reported for Nc1n[nH]c2cc(-c3ccc(=O)n(Cc4ccccc4F)c3)ccc12 in the records?
Marked response: 33

* * *

I'd be grateful if you could share measured Cmax for these entries.
Assay: Cmax in CD-1 mouse at 5 mg/kg, po by LC-MS analysis
Type: ADME, organism-based
Parameters: route oral, dose 5 mg/kg
Conditions: in vivo
Include the unit after the number when you answer.

Exam item: Which Cmax is reported for this molecule? Nc1n[nH]c2cc(-c3ccc(=O)n(Cc4ccccc4F)c3)ccc12
Marked response: 335 ng/mL

Exam item: For the molecule Nc1n[nH]c2cc(-c3ccc(=O)n(Cc4cccc(Cl)c4)c3)ccc12 , what Cmax is on record?
Marked response: 1050 ng/mL

* * *

Test: AUC (0 to infinity) in CD-1 mouse at 2 mg/kg, iv by LC-MS analysis
Format: ADME, organism-based
Design: route intravenous, time infinity, dose 2 mg/kg
Settings: in vivo
Would you kindly list AUC for each of these molecules?
Express your answer as a number followed by its unit.

Exam item: Please report the recorded AUC for Nc1n[nH]c2cc(-c3ccc(=O)n(Cc4ccccc4F)c3)ccc12 .
Marked response: 0.677 µg·h/mL

Exam item: Which AUC is reported for this molecule? Nc1n[nH]c2cc(-c3ccc(=O)n(Cc4cccc(Cl)c4)c3)ccc12
Marked response: 0.855 µg·h/mL
